Biological target: G-protein coupled receptor 151 (Homo sapiens) (UniProt Q8TDV0)
Sequence (Q8TDV0 whole entry, looked up): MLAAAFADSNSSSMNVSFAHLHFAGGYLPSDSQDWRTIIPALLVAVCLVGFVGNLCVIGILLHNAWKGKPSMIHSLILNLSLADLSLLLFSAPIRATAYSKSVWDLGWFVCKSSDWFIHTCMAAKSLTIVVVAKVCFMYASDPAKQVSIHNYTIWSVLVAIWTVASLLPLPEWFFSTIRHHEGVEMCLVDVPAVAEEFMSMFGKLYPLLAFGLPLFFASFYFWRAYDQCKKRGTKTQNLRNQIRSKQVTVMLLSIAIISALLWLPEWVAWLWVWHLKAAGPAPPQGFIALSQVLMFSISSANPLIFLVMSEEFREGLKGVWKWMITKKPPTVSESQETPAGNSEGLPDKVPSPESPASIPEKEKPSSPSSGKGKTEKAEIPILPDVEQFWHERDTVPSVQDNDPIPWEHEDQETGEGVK
Test: GPR151 activator potency, dose response, cell-based (AID 1508610)
Conditions: cell-based GPR151 activation reporter
The source made the active and inactive calls. How the calls were made is not given here.
# output must be one of active, inactive

Solved cases (5 shown):
• C#CCN1CCc2cc(OC)c(OC)cc2C1C (centres undefined) = inactive
• COc1ccc(-c2ccc(C(=O)Nc3ccc(NC(C)=O)cc3)s2)cc1 = inactive
• COc1ccc(-c2cn3cc(C(=O)O)ccc3n2)cc1 = inactive
• Cc1nc2c(C(=O)NCc3ccccn3)cnn2c(C)c1Cc1cccc(Cl)c1 = inactive
• O=C(Nc1nc(-c2ccc(I)cc2)cs1)c1ccc(Cl)s1 = inactive

q: Test call for this compound, please: Cc1ccccc1C(=O)Nc1noc2ccccc12
a: inactive

q: Test call, this compound: O=C(Nc1ncc([N+](=O)[O-])s1)c1cccs1
a: inactive

q: Query: recorded result category for COc1ccc(/C=N/NC(=O)COc2cccc(C)c2)cc1O in this test
a: inactive

q: // outcome(item) with item = c1ccc(-c2ccc(-c3nc(-c4ccccn4)no3)cc2)cc1
a: inactive

====

Biological target: UniProtKB Q8TDV0
Experiment: GPR151 activator potency, dose response, cell-based (AID 1508610)
Conditions: cell-based GPR151 activation reporter
The source made the active and inactive calls. How the calls were made is not given here.
QUANTITY_NAME: EC50

• COc1ccccc1OCC(=O)Nc1ccc(S(=O)(=O)NC(C)=O)cc1 = > 28 µM (inactive)
• Cc1ccc(CNC(=O)c2c(C)cc(=O)oc2C)cc1 = > 28 µM (inactive)
• O=S(=O)(NN=C1CCCCCC1)c1ccccc1 = > 28 µM (inactive)
• Cc1ccc(/C=N/NC(=O)Cc2cccn2C)s1 = > 28 µM (inactive)
• CCOC(=O)c1sc(NC(=O)c2sccc2C)cc1C = > 29 µM (inactive)
• COc1ccc(CCNc2ccnc(Nc3ccc(-n4ccnc4)cc3)n2)cc1 = inactive

Reported EC50 for Cc1cc2c(cc1C)C(c1cc([N+](=O)[O-])ccc1Cl)CC(=O)N2 (configuration not stated) was > 33.6 µM (inactive)

Form: compound = O=C(O)CC1c2ccccc2CCN1S(=O)(=O)c1ccc(Cl)cc1 (configuration not stated) ; EC50 = inactive

Field EC50 (entry COc1ccc(-n2nc3c(c2NC(=O)c2c(F)cccc2F)CS(=O)(=O)C3)cc1 ) reads > 31.2 µM (inactive)

compound C/C(=C\c1ccccc1)C(=O)Nc1ccccc1C(=O)O , EC50 observed: > 31.9 µM (inactive)

Entry Cc1cc2nc3c(=O)n(C4CCCCCC4)c(=O)[nH]c3nc2cc1N ; EC50 = > 28 µM (inactive)

EC50 reading for CON(C)C(=O)c1ccc(OCc2ccnc(Cl)c2)cc1 : > 28 µM (inactive)

====

Target: G-protein coupled receptor 151 (Homo sapiens) (UniProt Q8TDV0)
Test: GPR151 activator potency, dose response, cell-based (AID 1508610)
Conditions: cell-based GPR151 activation reporter
Active and inactive are the calls of the source. How the calls were made is not given here.
QUANTITY_NAME: EC50

Please review the entries below; each comes with its answer.
* Cc1cc(-n2c(SCC(=O)NCc3ccco3)nc3n[nH]c(C)c3c2=N)ccc1Cl | > 24.4 µM (inactive)
* O=C(Nc1nc2ccccc2[nH]1)c1ccccc1Cl | > 28.9 µM (inactive)

Consider the record given below.
// sample COc1ccc(CCNC(=O)c2sc3nc(C)nc(N4CCCCC4)c3c2C)cc1OC , its EC50 was > 27.6 µM (inactive)

====

Target: G-protein coupled receptor 151 (Homo sapiens) (UniProt Q8TDV0)
Experiment: GPR151 activator potency, dose response, cell-based (AID 1508610)
Details: cell-based GPR151 activation reporter
Activity calls are given as the source filed them. How the calls were made is not given here.
Entries and their EC50

* COc1ccc(NC(=O)CCC(=O)Oc2ccc(C)cc2)cc1 | > 28 µM (inactive)
* Cc1cnc(C)c(NC2CCCCNC2=O)n1 (centres undefined) | > 28 µM (inactive)
* Cc1cc(N2CCCCC2)nc2ccc(NC(=O)c3cccc([N+](=O)[O-])c3)cc12 | > 29.2 µM (inactive)
* CCOc1ccc(/C=C2\SC(=S)N(CC(=O)Nc3ccc(O)cc3)C2=O)cc1 | > 28.4 µM (inactive)
* O=C(CCCC(=O)N/N=C/c1cccc([N+](=O)[O-])c1)N/N=C/c1cccc([N+](=O)[O-])c1 | > 28 µM (inactive)
* COc1cccc(NC(=O)c2cc(C3CC3)[nH]n2)c1 | > 28 µM (inactive)
* O=C(/C=C/c1ccc(O)cc1)c1ccc(O)cc1O | > 28 µM (inactive)
* O=C(O)c1cc(N=Cc2ccco2)ccc1O | > 28 µM (inactive)

Observed EC50 on G-protein coupled receptor 151 (Homo sapiens) (UniProt Q8TDV0), entry COc1ccc(-c2noc(CCC(=O)Nc3ccc(C)c(C)c3)n2)cc1 , equals > 28 µM (inactive)

====

Reported EC50 values for a set of compounds
Biological target: G-protein coupled receptor 151 (Homo sapiens)
Assay: GPR151 activator potency, dose response, cell-based (AID 1508610)
Conditions: cell-based GPR151 activation reporter
Calls of active or inactive are those of the source. How the calls were made is not given here.

Response field EC50 (G-protein coupled receptor 151 (Homo sapiens)) for item CCOc1cc(NC(=O)C2CCCO2)c(OCC)cc1NC(C)=O (centres undefined) : > 9.34 µM (inactive)

Entry CCOC(=O)COc1ccc(/C=C2\C=C(c3ccc(Br)cc3)OC2=O)cc1OC : EC50 on G-protein coupled receptor 151 (Homo sapiens) = > 23.6 µM (inactive)

Field EC50 (system: G-protein coupled receptor 151 (Homo sapiens)) for entry Cc1cn2c(=O)c(C(=O)NOCc3cccc(C(F)(F)F)c3)cnc2s1 = > 28 µM (inactive)

====

Target: G-protein coupled receptor 151 (Homo sapiens)
Test: GPR151 activator potency, dose response, cell-based (AID 1508610)
Settings: cell-based GPR151 activation reporter
Activity calls are given as the source filed them. How the calls were made is not given here.
Could you please pick one outcome from this set? active, inactive

Study these solved cases before continuing.
- O=C(NN=C1CCCCC1)C(O)(c1ccccc1)c1ccccc1: inactive
- COc1cccc(-c2ccc(SCC(=O)Nc3cccc(NC(C)=O)c3)nn2)c1: inactive
- O=c1oc2cc(O)ccc2cc1-c1ccccc1: inactive

q: Fill in: this test's call for CCN(CC)C(=S)SCCC(=O)NC(=O)Nc1ccc(F)cc1 is ___
a: inactive

q: Hey, what did the test say about CCN(CC)c1nc(SC)nc(Cl)c1Cc1ccc(OC(C)C)cc1 ?
a: inactive

q: Just curious, what result did COc1ncc(-c2cncc(-c3cccc(O)c3)n2)c(OC)n1 get here?
a: inactive

q: Fill in: this test's call for Cc1cccc(-c2cnc(C)nc2C2CCCN(C(=O)CN(C)C)C2)c1 (stereo not given) is ___
a: inactive

q: Please state the recorded outcome for this compound: O=C(O)CN1CCN(Cc2ccc(Cl)cc2)C1=O
a: inactive

q: I'd appreciate the recorded outcome for C=CCN1C(=O)/C(=C/c2ccc(Cl)cc2)C(=O)NC1=S from this test.
a: inactive

q: Which result was noted for this compound in the test: COc1ccc(-c2nc3ccccc3[nH]2)cc1
a: inactive

q: Check the results log: what was the call for Cc1ccc2cc(CN(CC3CCCO3)C(=O)C3CCC3)c3nnnn3c2c1 (stereo not given) ?
a: inactive

q: Which outcome was entered for the compound COc1ccc(/C=C/C(=O)Nc2ccccc2)cc1 in this test?
a: inactive

q: # outcome recorded in this test, key = CSc1ccc(/C=N/NC(=O)C[n+]2ccccc2)cc1
a: inactive

q: Look up the recorded call for CCOC(=O)c1cc(S(=O)(=O)N2CCN(c3ccccc3F)CC2)cn1C in this test.
a: inactive

q: State the result this test recorded for Cc1ccc(NC(=O)/C(C#N)=C\c2ccccc2O)cc1C .
a: inactive

q: Recorded test outcome, item COc1ccc(-c2csc(/C(C#N)=C/Nc3ccc(F)c([N+](=O)[O-])c3)n2)cc1OC
a: inactive

====

Each item that follows carries a reported EC50.
Target: G-protein coupled receptor 151 (Homo sapiens) (UniProt Q8TDV0)
Assay: GPR151 activator potency, dose response, cell-based (AID 1508610)
Conditions: cell-based GPR151 activation reporter
Calls of active or inactive are those of the source. No rule for the calls is given here.

Worked set:
• COc1ccc(Br)cc1C(=O)NCC1COc2ccccc2O1 (centres undefined) = > 28 µM (inactive)
• Cn1c(=O)c(=O)n(C)c2cc(S(=O)(=O)N3CCN(C(=O)c4ccco4)CC3)ccc21 = > 28 µM (inactive)
• COc1ccc(CCNC(=O)/C=C\C(=O)O)cc1OC = > 28 µM (inactive)
• COCCNC(=O)/C(C#N)=C/C=C/c1ccccc1 = > 30.6 µM (inactive)

EC50 in this record for Cc1csc2ncc(C(=O)N3CCc4ccccc43)c(=O)n12 : > 28 µM (inactive)

Short answer for COc1cccc2oc(-c3ccccc3)cc(=O)c12 : EC50 was > 28 µM (inactive)

Item: CCn1c(/C=C/C=C2\N(C)c3ccccc3C2(C)C)[n+](Cc2ccccc2)c2ccccc21 | EC50: 2.75 µM

Entry N#C/C(=C\c1c(Oc2ccc(Cl)cc2Cl)nc2ccccn2c1=O)C(N)=O , EC50 reported as > 27.9 µM (inactive)

Field EC50 (entry COc1ccc(-c2ccc(C(=O)NCc3cccnc3)s2)cc1 ) reads > 28.2 µM (inactive)
